- Test context: buffer; pH 7.4; 200.0 µM
Measured attribute: solubility kinetic (µg/mL)

[[record]]
molecule = "CN(C)C(=S)Nc1cccc(C(F)(F)F)c1"
measured_attribute = "solubility kinetic"
operator_symbol = "="
obs_value = 29.7

[[record]]
molecule = "O=C(NCCN1CCOCC1)c1ccc(Cl)c(Cl)c1"
measured_attribute = "solubility kinetic"
operator_symbol = "="
obs_value = 43.5

[[record]]
molecule = "COc1ccc(Cl)cc1NC(=O)COC(=O)c1ccc(Br)o1"
measured_attribute = "solubility kinetic"
operator_symbol = "="
obs_value = 2.6

[[record]]
molecule = "O=C(Nc1cccc2ncccc12)c1ccco1"
measured_attribute = "solubility kinetic"
operator_symbol = "="
obs_value = 30.5

[[record]]
molecule = "Cc1noc(C)c1COc1ccc(C(=O)N2CCN(S(=O)(=O)c3cccc(F)c3)CC2)cc1"
measured_attribute = "solubility kinetic"
operator_symbol = "="
obs_value = 25.1

[[record]]
molecule = "CCc1nc2ccccc2c(C(=O)NCc2ccc(OC)cc2)c1C"
measured_attribute = "solubility kinetic"
operator_symbol = "="
obs_value = 47.9

[[record]]
molecule = "O=C(COc1ccc(Cl)c2cccnc12)N1CCOCC1"
measured_attribute = "solubility kinetic"
operator_symbol = "="
obs_value = 42.5

[[record]]
molecule = "O=C(O)CSc1nccc2ccccc12"
measured_attribute = "solubility kinetic"
operator_symbol = ">"
obs_value = 32.9

[[record]]
molecule = "CCOC(=O)c1c(NC(=O)CNC2CCCCC2)sc(C)c1C"
measured_attribute = "solubility kinetic"
operator_symbol = "<"
obs_value = 0.4

[[record]]
molecule = "O=C(CN1C(=O)NC2(CCCCCC2)C1=O)c1cccs1"
measured_attribute = "solubility kinetic"
operator_symbol = ">"
obs_value = 46

[[record]]
molecule = "CCN1CCN(C(=O)NC2CCCCC2)CC1.O=C(O)C(=O)O"
measured_attribute = "solubility kinetic"
operator_symbol = ">"
obs_value = 49.4

[[record]]
molecule = "O=C(COC(=O)[C@@H]1CC(O)CN1S(=O)(=O)c1ccc(Cl)c(Cl)c1)NC(=O)NCc1ccccc1 (stereo not given in full)"
measured_attribute = "solubility kinetic"
operator_symbol = "="
obs_value = 66.7

[[record]]
molecule = "COc1ccccc1NC(=O)CCN1C(=O)C2CC=CCC2C1=O (stereo not given)"
measured_attribute = "solubility kinetic"
operator_symbol = ">"
obs_value = 49.3

[[record]]
molecule = "O=C(NC1CCCC1)c1ccc(Cl)s1"
measured_attribute = "solubility kinetic"
operator_symbol = "="
obs_value = 30.7

[[record]]
molecule = "CN(C(=O)COc1ncnc2ccccc12)C1CCCCC1"
measured_attribute = "solubility kinetic"
operator_symbol = "="
obs_value = 39

[[record]]
molecule = "CCOC(=O)c1c(C)nc(C)c(C(=O)OCC)c1-c1cccc(N)c1"
measured_attribute = "solubility kinetic"
operator_symbol = "="
obs_value = 42.1

[[record]]
molecule = "COc1ccc(OCC(=O)OC2CCCN(C)C2)cc1.Cl (stereo not given)"
measured_attribute = "solubility kinetic"
operator_symbol = ">"
obs_value = 47.4

[[record]]
molecule = "CCN1/C(=C\\C(=S)Nc2ccccc2)Sc2ccccc21"
measured_attribute = "solubility kinetic"
operator_symbol = "="
obs_value = 20.7

[[record]]
molecule = "COC(=O)C(Cc1ccc(O)cc1)NC(=O)CCc1ccco1 (stereo not given)"
measured_attribute = "solubility kinetic"
operator_symbol = "="
obs_value = 46.5

[[record]]
molecule = "Cc1ccc(-n2c(-c3ccc(Cl)cc3)c[n+]3c2CCC3)cc1.[Br-]"
measured_attribute = "solubility kinetic"
operator_symbol = ">"
obs_value = 58.5

[[record]]
molecule = "CCOc1cc(C=O)ccc1OCC(=O)N1CCCC1"
measured_attribute = "solubility kinetic"
operator_symbol = ">"
obs_value = 41.6

[[record]]
molecule = "Cc1ccc2c(c1C)NC(=O)CC(c1ccccc1O)=N2"
measured_attribute = "solubility kinetic"
operator_symbol = "="
obs_value = 0.6

[[record]]
molecule = "COc1cccc(C(C)NC(=O)Cc2cccs2)c1 (stereo not given)"
measured_attribute = "solubility kinetic"
operator_symbol = ">"
obs_value = 41.3

[[record]]
molecule = "COc1ccc(NC(=O)Oc2ccccc2)cc1Cl"
measured_attribute = "solubility kinetic"
operator_symbol = "="
obs_value = 18.4

[[record]]
molecule = "CN/C(=C/[N+](=O)[O-])NCCSCc1ccc(CN(C)C)o1.Cl"
measured_attribute = "solubility kinetic"
operator_symbol = "="
obs_value = 52.4


###

- Test context: buffer; pH 7.4; 200.0 µM
Reported solubility kinetic values are given for each entry in this list.
Measured attribute: solubility kinetic

[[record]]
compound = "COc1ccc(NC(=O)CN(C)CC(=O)NC2CCCCC2C)cc1 (configuration not stated)"
obs_value = "50.2 µg/mL"

[[record]]
compound = "Cc1cccc(NC(=O)COC(=O)CN2CCCCCC2=O)c1C"
obs_value = "> 49.9 µg/mL"

[[record]]
compound = "Cc1ccc(NS(=O)(=O)c2cc(N)ccc2Cl)c(C)c1"
obs_value = "43.5 µg/mL"

[[record]]
compound = "O=C1CCCN1S(=O)(=O)c1ccc(F)cc1"
obs_value = "> 36.5 µg/mL"

[[record]]
compound = "COC(=O)CNC(=O)COC(=O)/C=C/c1ccccc1[N+](=O)[O-]"
obs_value = "41.3 µg/mL"

[[record]]
compound = "CC(C)(CC(=O)O)CC(=O)Nc1cc(C(F)(F)F)cc(C(F)(F)F)c1"
obs_value = "46.1 µg/mL"

[[record]]
compound = "CSc1ncccc1C(=O)OCC(=O)c1ccc(C)s1"
obs_value = "3.5 µg/mL"

[[record]]
compound = "O=C(NCc1ccc(Cl)cc1)c1ccc2ccccc2n1"
obs_value = "3.4 µg/mL"

[[record]]
compound = "CC(=O)Nc1ccc(-c2csc(Nc3ccccn3)n2)cc1"
obs_value = "0.5 µg/mL"

[[record]]
compound = "O=[N+]([O-])c1ccc(O)c(Nc2ncnc3ccccc23)c1"
obs_value = "1.4 µg/mL"

[[record]]
compound = "C=CCOc1ccccc1CNCc1ccc(F)cc1.Cl"
obs_value = "> 46.2 µg/mL"

[[record]]
compound = "Cc1cc2oc(=O)cc(CN3CCC(C)CC3)c2cc1C"
obs_value = "4.1 µg/mL"


###

Items are presented alongside their recorded solubility kinetic.
- Test context: buffer; pH 7.4; 200.0 µM
Measured attribute: solubility kinetic (µg/mL)

[[record]]
molecule = "Cc1noc(C(=O)Nc2cccnc2Cl)c1Cl"
measured_attribute = "solubility kinetic"
operator_symbol = ">"
obs_value = 40.8

[[record]]
molecule = "[Cl-].c1ccc(Cn2c[n+](Cc3ccccc3)c3ccccc32)cc1"
measured_attribute = "solubility kinetic"
operator_symbol = "="
obs_value = 42.9

[[record]]
molecule = "CC(C)=CC1C(C(=O)NCCc2ccccc2)C1(C)C (stereo not given)"
measured_attribute = "solubility kinetic"
operator_symbol = "="
obs_value = 27.6

[[record]]
molecule = "CCc1ccc(/C=C2/SC(N3CCOCC3)=NC2=O)cc1"
measured_attribute = "solubility kinetic"
operator_symbol = "="
obs_value = 26.5

[[record]]
molecule = "O/C=c1\\ccc2cccc3nc(C(F)(F)F)nc1c23"
measured_attribute = "solubility kinetic"
operator_symbol = "="
obs_value = 5.5

[[record]]
molecule = "Cc1cc(F)ccc1NC(=O)C1CCCO1 (stereo not given)"
measured_attribute = "solubility kinetic"
operator_symbol = "="
obs_value = 33.3

[[record]]
molecule = "CN(C(=O)NC1CCCCC1)c1ccccc1"
measured_attribute = "solubility kinetic"
operator_symbol = ">"
obs_value = 34.8

[[record]]
molecule = "CN(Cc1nc(-c2ccccc2)no1)C(=O)c1ccco1"
measured_attribute = "solubility kinetic"
operator_symbol = ">"
obs_value = 42.5

[[record]]
molecule = "CCOC(=O)c1sc(S(C)(=O)=O)c2c1CC(C)(C)C/C2=N/O"
measured_attribute = "solubility kinetic"
operator_symbol = ">"
obs_value = 51.8

[[record]]
molecule = "Cc1oc(-c2cccc(C(F)(F)F)c2)nc1CN1CCOCC1"
measured_attribute = "solubility kinetic"
operator_symbol = "="
obs_value = 44.3

[[record]]
molecule = "CN1CCCN(C(=O)COc2ccccc2Br)CC1"
measured_attribute = "solubility kinetic"
operator_symbol = ">"
obs_value = 49.1

[[record]]
molecule = "Oc1[nH]c2ccccc2c1C=Nc1ccccc1"
measured_attribute = "solubility kinetic"
operator_symbol = "="
obs_value = 0.7

[[record]]
molecule = "COc1ccc(CNCc2ccncc2)cc1OC.Cl"
measured_attribute = "solubility kinetic"
operator_symbol = ">"
obs_value = 44.2

[[record]]
molecule = "O=C(O)[C@H](Cc1ccccc1)NC(=O)N1CCN(c2ccccc2)CC1"
measured_attribute = "solubility kinetic"
operator_symbol = "="
obs_value = 51.8

[[record]]
molecule = "O=C(c1ccccc1)C1CN(Cc2ccccc2)CCC1(O)c1ccccc1 (stereo not given)"
measured_attribute = "solubility kinetic"
operator_symbol = "="
obs_value = 10.4

[[record]]
molecule = "COc1ccc2cc(C(=O)O)n(CC(=O)c3ccccc3)c2c1"
measured_attribute = "solubility kinetic"
operator_symbol = ">"
obs_value = 46.4

[[record]]
molecule = "CNC(=O)c1cccc2nc3ccccc3nc12"
measured_attribute = "solubility kinetic"
operator_symbol = ">"
obs_value = 35.6

[[record]]
molecule = "CC1CC(C)CN(C(=O)C2CC(=O)N(c3ccc(F)cc3)C2)C1 (stereo not given)"
measured_attribute = "solubility kinetic"
operator_symbol = "="
obs_value = 34.7

[[record]]
molecule = "Cc1cccc(Oc2ccc(NC(=O)c3ccccc3C(=O)O)cc2)c1"
measured_attribute = "solubility kinetic"
operator_symbol = ">"
obs_value = 52.1

[[record]]
molecule = "CC(C)Cc1csc(NC(=O)c2ccc(Br)cc2)c1C(=O)O"
measured_attribute = "solubility kinetic"
operator_symbol = "="
obs_value = 53.6

[[record]]
molecule = "CCN(c1cccc2ccccc12)S(=O)(=O)c1ccc(Cl)nc1"
measured_attribute = "solubility kinetic"
operator_symbol = "="
obs_value = 7.9

[[record]]
molecule = "CNC(=S)Nc1cccc(S(=O)(=O)NCc2ccco2)c1"
measured_attribute = "solubility kinetic"
operator_symbol = ">"
obs_value = 48.8

[[record]]
molecule = "CCc1nnc(NC(=O)CCNC(=O)c2ccccc2Cl)s1"
measured_attribute = "solubility kinetic"
operator_symbol = ">"
obs_value = 50.8

[[record]]
molecule = "COc1cc(N=c2ssnc2Cl)c(OC)cc1Cl"
measured_attribute = "solubility kinetic"
operator_symbol = "="
obs_value = 15.6

[[record]]
molecule = "O=C(NC(=S)NC1CCCCC1)c1ccccc1[N+](=O)[O-]"
measured_attribute = "solubility kinetic"
operator_symbol = "="
obs_value = 3

